# test protocol: Chromatographic hydrophobicity index in immobilized artificial membrane at pH 7.4 by HPLC method
# Type: ADME, cell membranes
recorded metric: CHI
Lab note: jot down the number only; don't add units.

**Query** Entry C=CC(=O)NCCCC[C@H](NC(=O)Nc1ccc(F)cc1)C(=O)N1CCN(c2cccc(C)n2)CC1 : reported CHI = ?
**Result** 34.3

**Query** Request: C=CC(=O)NCCCC[C@H](NC(=O)Cc1ccccc1F)C(=O)N1CCN(c2cccc([N+](=O)[O-])n2)CC1
**Result** 30.7

**Query** Request: C=CC(=O)NCCCC[C@H](NC(=O)Cc1ccccc1)C(=O)N1CCN(c2ccncc2)CC1
**Result** 25.4

**Query** Request: C=CC(=O)NCCCC[C@H](NC(=O)Cc1ccccc1)C(=O)N1CCN(c2cccc([N+](=O)[O-])n2)CC1
**Result** 30.7

**Query** Request: C=CC(=O)NCCCC[C@H](NC(=O)Cc1ccccc1)C(=O)N1CCN(c2cccc(F)n2)CC1
**Result** 31.8

**Query** Request: C=CC(=O)NCCCC[C@H](NC(=O)Cc1ccccc1F)C(=O)N1CCN(c2cccc(C)n2)CC1
**Result** 30.1

**Query** Request: C=CC(=O)NCCCC[C@H](NC(=O)Cc1ccccc1)C(=O)N1CCN(c2ccc(F)nc2)CC1
**Result** 26.8

**Query** Request: C=CC(=O)NCCCC[C@H](NC(=O)c1ccc(F)cc1)C(=O)N1CCN(c2cccc(C)n2)CC1
**Result** 31.4

**Query** Request: C=CC(=O)NCCCC[C@H](NC(=O)Cc1ccccc1)C(=O)N1CCN(c2cccc(C)n2)CC1
**Result** 29.4

**Query** Request: C=CC(=O)NCCCC[C@H](NC(=O)c1ccc(F)cc1)C(=O)N1CCN(c2ccc([N+](=O)[O-])nc2)CC1
**Result** 28.5

**Query** Request: C=CC(=O)NCCCC[C@H](NC(=O)Cc1ccccc1)C(=O)N1CCN(S(=O)(=O)c2cccc3c(N(C)C)cccc23)CC1
**Result** 37.7

**Query** Request: C=CC(=O)NCCCC[C@H](NC(=O)Cc1ccccc1)C(=O)N1CCN(c2cccc(-c3ccccc3)n2)CC1
**Result** 39

**Query** Request: C=CC(=O)NCCCC[C@H](NC(=O)Cc1cccc(F)c1)C(=O)N1CCN(c2cccc(C)n2)CC1
**Result** 30.9

**Query** Request: C=CC(=O)NCCCC[C@H](NC(=O)Cc1ccccc1)C(=O)N1CCN(c2ccc(C(F)(F)F)nc2)CC1
**Result** 31.8

**Query** Request: C=CC(=O)NCCCC[C@H](NC(=O)Cc1ccc(F)cc1)C(=O)N1CCN(c2cccc(C)n2)CC1
**Result** 32.4

**Query** Request: C=CC(=O)NCCCC[C@H](NC(=O)Cc1ccccc1)C(=O)N1CCN(Cc2ccc(F)cc2)CC1
**Result** 32

**Query** Request: C=CC(=O)NCCCC[C@H](NC(=O)Cc1ccccc1)C(=O)N1CCN(c2cccc(C(C)(C)C)n2)CC1
**Result** 39.5

**Query** Request: C=CC(=O)NCCCC[C@H](NC(=O)Cc1ccccc1)C(=O)N1CCN(C(=O)c2ccc(F)cc2)CC1
**Result** 25

**Query** Request: C=CC(=O)NCCCC[C@H](NC(=O)Cc1ccc(F)cc1)C(=O)N1CCN(c2ccc([N+](=O)[O-])nc2)CC1
**Result** 28.3

Where do the numbers come from? From ChEMBL document CHEMBL4219231.
